target: bovine serum albumin (bovine) (UniProt P02769); assay: EIA, BSA control
Sequence (P02769 25-607 limits assumed): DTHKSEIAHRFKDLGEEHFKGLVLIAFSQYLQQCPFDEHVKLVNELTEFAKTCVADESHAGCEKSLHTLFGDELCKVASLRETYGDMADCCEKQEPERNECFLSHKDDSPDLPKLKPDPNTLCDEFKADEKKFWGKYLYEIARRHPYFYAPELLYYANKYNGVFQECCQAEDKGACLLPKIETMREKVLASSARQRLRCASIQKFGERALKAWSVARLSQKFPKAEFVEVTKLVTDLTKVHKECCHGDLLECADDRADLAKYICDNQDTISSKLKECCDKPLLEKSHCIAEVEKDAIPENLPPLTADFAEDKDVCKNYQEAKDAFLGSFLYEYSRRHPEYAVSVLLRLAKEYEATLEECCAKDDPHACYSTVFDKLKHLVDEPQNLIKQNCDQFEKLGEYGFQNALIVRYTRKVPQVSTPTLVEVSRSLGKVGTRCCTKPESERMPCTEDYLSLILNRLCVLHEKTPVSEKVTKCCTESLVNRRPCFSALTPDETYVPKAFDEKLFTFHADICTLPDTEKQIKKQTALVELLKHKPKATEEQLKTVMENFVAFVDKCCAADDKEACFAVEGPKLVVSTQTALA
Measurement label: Reactivity (OD 492 nm)

Binder	Measurement label	Result
HCV 208A-874 (antibody, V domains shown) VH: QVQLQQPGAELVKPGASVKLSCKASGYTLSSYWMHWVKQRPGQGLEWIGEIHPSDSYTSYNQKFKDKATLTVDKSSSTAYMQLSSLTSEDSAVYYCARGGYYRYDEFAYWGQGTLVTVSA VL: DIVMTQSHKFMSTSIGDRVSITCKASQNVSPAVAWYQQKPGQSPKLLIYSASSRYTGVPDRFTGSGSGTAFTFTISSVQAEDLAVYFCQQHFSTPWTFGGGTMLEIKR	Reactivity (OD 492 nm)	0.05 OD units
HCV 208B-793 (antibody, V domains shown) VH: EVKLVESGGGLVQPGGSLKLSCAASGFTFSSYAMSWVRQTPERRLEWVTYISNGGGSTYYSDTVKGRFTFSRDNAKNTLYLQMSSLKSEDTAMYYCARHGLGRTGFASWGQGTLVTVSA VL: DIVMTQSHKFMSTSVGDRVSITCKASQDVGTAVAWYQQKPGQSPKLLIYWASTRHTGVPDRFTGSGSGTDFTLTISNVQSEDLADYFCQQYSNYLTFGAGTKLEVKR	Reactivity (OD 492 nm)	0.13 OD units
HCV 208B-911 (antibody, V domains shown) VH: QVHLQQPGAELVRPGVSVKLSCKASGYTFTTYSINWMKQRPGQGLEWIGNIYPSTSHTNYNQKFRDKATMTVDKSSSTAYMQLSSPTSEDSAVYYCTINAYSMDYWGQGTSVTVSS VL: QIVLTQSPEIMSASPGEKVTITCSASSSVSFMYWFQQKPGTSPKLWIYITSNLASGVPTRFSGSGSGTSYSLTISRMEAEDAATYYCQQRSSFPYTFGGGTKLEMKR	Reactivity (OD 492 nm)	0.1 OD units
HCV 208A-967 (antibody, V domains shown) VH: QVQLEESGPGLVAPSQSLSITCTVSGFSLTSYGVHWVRQPPGKGLEWLGVIWAVGSINYNSALMSRLSISKDNSKSQVFLKMNSLRTDDTAMYYCARDRTTATPFFDYWGQGTTLTVSS VL: DIVLTQSPASLAGSLGKRAPISCKASESVNFFGTNLIHWYQQKPGQPPKLLIYHASNLKTGVPARFRGRGSKTNFPLPIDPVEENDVAIYYCLQNRKIPLTFGVGTKLELKR	Reactivity (OD 492 nm)	0.07 OD units

This collection of values is drawn from patent US20170052184A1.
